Measured values drawn from patent US20230233569A1 for this set.

Biological target: NRAS WT (Homo sapiens, UniProt P01111+P62937)
Sequence (P01111 whole entry): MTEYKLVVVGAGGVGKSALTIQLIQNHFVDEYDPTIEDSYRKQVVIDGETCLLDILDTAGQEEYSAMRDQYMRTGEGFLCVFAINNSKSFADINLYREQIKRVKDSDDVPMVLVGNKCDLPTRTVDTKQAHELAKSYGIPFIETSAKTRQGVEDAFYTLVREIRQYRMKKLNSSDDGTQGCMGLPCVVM
Sequence (P62937 whole entry): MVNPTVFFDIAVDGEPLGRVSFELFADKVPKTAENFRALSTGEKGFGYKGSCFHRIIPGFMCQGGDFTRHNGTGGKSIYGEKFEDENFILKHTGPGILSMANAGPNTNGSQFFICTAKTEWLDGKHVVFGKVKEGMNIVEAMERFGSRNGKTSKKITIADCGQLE
Assay: Ras-Raf disruption / FRET / MOA assay (BRAF RBD)
Format: biochemical
Conditions: NRAS WT; read-out: NRAS WT FRET data IC50
Let's look at some compounds and their measured IC50.
property_measured: IC50

# compound, measured_target, value_observed
measured = [
    ("CCn1c(-c2cccnc2[C@H](C)OC)c2c3cc(ccc31)-c1cc(O)cc(c1)C[C@H](NC(=O)[C@H](C(C)C)N(C)C(=O)[C@H]1C[C@H](NC(=O)[C@@H]3CN3)C1)C(=O)N1CCC[C@H](N1)C(=O)OCC(C)(C)C2 [Example 167]", "NRAS WT (Homo sapiens, UniProt P01111+P62937)", "10 to 100 nM"),
    ("CCn1c(-c2cccnc2[C@H](C)OC)c2c3cc(ccc31)-c1csc(n1)C[C@H](NC(=O)[C@H](C(C)C)N(C)C(=O)N(C)C1CN(C(=O)[C@H]3CN3)C1)C(=O)N1CCC[C@H](N1)C(=O)OCC(C)(C)C2 [Example 220]", "NRAS WT (Homo sapiens, UniProt P01111+P62937)", "100 to 1000 nM"),
    ("CCn1c(-c2cccnc2[C@H](C)OC)c2c3cc(ccc31)-c1csc(n1)C[C@H](NC(=O)[C@H](C(C)C)N(C)C(=O)N1CC[C@H](N(C)C(=O)[C@@H]3CN3)C1)C(=O)N1CCC[C@H](N1)C(=O)OCC(C)(C)C2 (atropisomer, axis not shown) [Example 229]", "NRAS WT (Homo sapiens, UniProt P01111+P62937)", "100 to 1000 nM"),
    ("CCn1c(-c2cccnc2[C@H](C)OC)c2c3cc(ccc31)-c1cc(O)cc(c1)C[C@H](NC(=O)[C@H](C(C)C)N(C)C(=O)C1CCN(S(=O)(=O)[C@H]3CN3C)CC1)C(=O)N1CCC[C@H](N1)C(=O)OCC(C)(C)C2 (single isomer, unassigned) [Example 108]", "NRAS WT (Homo sapiens, UniProt P01111+P62937)", "100 to 1000 nM"),
    ("CCn1c(-c2cccnc2[C@H](C)OC)c2c3cc(ccc31)-c1cc(O)cc(c1)C[C@H](NC(=O)[C@H](C(C)C)N(C)C(=O)c1nc(NC(=O)[C@H]3CN3)cs1)C(=O)N1CCC[C@H](N1)C(=O)OCC(C)(C)C2 (atropisomer, axis not shown) [Example 212]", "NRAS WT (Homo sapiens, UniProt P01111+P62937)", "100 to 1000 nM"),
    ("CCn1c(-c2cccnc2[C@H](C)OC)c2c3cc(ccc31)-c1cc(O)cc(c1)C[C@H](NC(=O)[C@H](C(C)C)N(C)C(=O)N(C)CCN(C)C(=O)[C@H]1CN1)C(=O)N1CCC[C@H](N1)C(=O)OCC(C)(C)C2 (atropisomer, axis not shown) [Example 204]", "NRAS WT (Homo sapiens, UniProt P01111+P62937)", "10 to 100 nM"),
    ("CCn1c(-c2cccnc2[C@H](C)OC)c2c3cc(ccc31)-c1csc(n1)C[C@H](NC(=O)[C@H](C(C)C)N(C)C(=O)N1CCN(C(=O)[C@H]3CN3)[C@H](C)C1)C(=O)N1CCC[C@H](N1)C(=O)OCC(C)(C)C2 [Example 299]", "NRAS WT (Homo sapiens, UniProt P01111+P62937)", "100 to 1000 nM"),
    ("CCn1c(-c2cccnc2[C@H](C)OC)c2c3cc(ccc31)-c1cc(O)cc(c1)C[C@H](NC(=O)[C@H](C(C)C)N(C)C(=O)[C@H]1CCN(C(=O)C3(C)CO3)C1)C(=O)N1CCC[C@H](N1)C(=O)OCC(C)(C)C2 (some centres unmarked) [Example 332]", "NRAS WT (Homo sapiens, UniProt P01111+P62937)", "10 to 100 nM"),
]
